Give measured EC50 for each item. Keep answers brief.
- tested target: human MC1 receptor (Homo sapiens, UniProt Q01726)
- Construct: expressed in transfected cells; host or cells: Chinese Hamster Ovary (CHO) cells
- Sequence (Q01726 whole entry): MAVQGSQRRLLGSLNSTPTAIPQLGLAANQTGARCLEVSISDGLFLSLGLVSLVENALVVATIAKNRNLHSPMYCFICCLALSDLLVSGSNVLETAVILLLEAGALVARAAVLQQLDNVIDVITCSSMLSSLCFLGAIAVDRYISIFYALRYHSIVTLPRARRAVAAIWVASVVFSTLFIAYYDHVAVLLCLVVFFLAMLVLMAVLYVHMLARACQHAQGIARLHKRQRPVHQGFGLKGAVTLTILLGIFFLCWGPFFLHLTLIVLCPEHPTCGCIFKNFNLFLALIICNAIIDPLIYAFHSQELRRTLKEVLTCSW
- protocol text: Human MC1 receptor cAMP HTRF functional assay (MC1R stimulation)
- Type: cell-based
- condition set: agonist activity; CHO cells expressing human MC1R; 30 min incubation; 8 concentrations in duplicate; read-out: EC50 [nM], MC1R stimulation assay
Residues, ends and D or L forms follow the SMILES beside them.
Answer format reminder: number followed by unit.

compound | EC50
NCC[C@H](NC(=O)[C@@H](Cc1ccccc1)NC(=O)[C@H](Cc1c[nH]cn1)NC(=O)CNC(=O)c1ccccc1)C(=O)N[C@@H](Cc1c[nH]c2ccccc12)C(N)=O [(I-h), Bz-Gly-His-D-Phe-Dab-Trp-NH2 *2TFA] (HELM PEPTIDE1{[O=C(c1ccccc1)[*:2]].G.H.[dF].[Dab].W.[am]}$$$$V2.0) | 7.51 nM

Now look at this one.
Consider the compound N=C(N)NCCC[C@H](NC(=O)[C@@H](Cc1ccccc1)NC(=O)[C@H](Cc1c[nH]cn1)NC(=O)CNC(=O)c1ccccc1)C(=O)N[C@@H](Cc1c[nH]c2ccccc12)C(N)=O [(I-a), Bz-Gly-His-D-Phe-Arg-Trp-NH2 *2TFA] (HELM PEPTIDE1{[O=C(c1ccccc1)[*:2]].G.H.[dF].R.W.[am]}$$$$V2.0) and give its measured EC50.
0.041 nM

----------
Give measured EC50 for each item. Keep answers brief.
- tested target: human MC1 receptor (Homo sapiens, UniProt Q01726)
- Construct: expressed in transfected cells; host or cells: Chinese Hamster Ovary (CHO) cells
- protocol text: Human MC1 receptor cAMP HTRF functional assay (MC1R stimulation)
- Type: cell-based
- condition set: agonist activity; CHO cells expressing human MC1R; 30 min incubation; 8 concentrations in duplicate; read-out: EC50 [nM], MC1R stimulation assay
Residues, ends and D or L forms follow the SMILES beside them.
Give bare numbers, in nM.

// input: 3 compounds below; output: EC50 for each
1. CCCN(CCC)C(=O)[C@@H](Cc1c[nH]c2ccccc12)NC(=O)[C@H](CCCNC(=N)N)NC(=O)[C@@H](Cc1ccccc1)NC(=O)[C@H](Cc1c[nH]cn1)NC(=O)CNC(=O)c1ccccc1 [(I-d)] (HELM PEPTIDE1{[O=C(c1ccccc1)[*:2]].G.H.[dF].R.[dW].[CCCN(CCC)[*:1]]}$$$$V2.0)
2. N=C(N)NCCC[C@H](NC(=O)[C@@H](Cc1ccccc1)NC(=O)[C@H](Cc1c[nH]cn1)NC(=O)CNC(=O)c1ccccc1)C(=O)N[C@H](Cc1ccc2ccccc2c1)C(N)=O [(I-b)] (HELM PEPTIDE1{[O=C(c1ccccc1)[*:2]].G.H.[dF].R.[O=C([C@@H](Cc1ccc2ccccc2c1)N[*:1])[*:2]].[am]}$$$$V2.0)
3. CCCN(CCC)C(=O)[C@H](Cc1c[nH]c2ccccc12)NC(=O)[C@H](CCCNC(=N)N)NC(=O)[C@@H](Cc1ccccc1)NC(=O)[C@H](Cc1c[nH]cn1)NC(=O)CNC(=O)c1ccccc1 [(I-e)] (HELM PEPTIDE1{[O=C(c1ccccc1)[*:2]].G.H.[dF].R.W.[CCCN(CCC)[*:1]]}$$$$V2.0)

1: 0.42; 2: 0.25; 3: 0.88

----------
- tested target: human MC1 receptor (Homo sapiens, UniProt Q01726)
- Construct: expressed in transfected cells; host or cells: Chinese Hamster Ovary (CHO) cells
- protocol text: Human MC1 receptor cAMP HTRF functional assay (MC1R stimulation)
- Format: cell-based
- condition set: agonist activity; CHO cells expressing human MC1R; 30 min incubation; 8 concentrations in duplicate; read-out: EC50 [nM], MC1R stimulation assay
Residues, ends and D or L forms follow the SMILES beside them.
Give measured EC50 for each item. Keep answers brief.
Answers are plain numbers, in nM.

compound | tested target | EC50 / nM
CCCCCCCCNC(=O)[C@H](Cc1c[nH]c2ccccc12)NC(=O)[C@H](CCCNC(=N)N)NC(=O)[C@@H](Cc1ccccc1)NC(=O)[C@H](Cc1c[nH]cn1)NC(=O)CNC(=O)c1ccccc1 [(I-f), Bz-Gly-His-D-Phe-Arg-Trp-NHOctyl *2TFA] (HELM PEPTIDE1{[O=C(c1ccccc1)[*:2]].G.H.[dF].R.W.[CCCCCCCCN[*:1]]}$$$$V2.0) | human MC1 receptor (Homo sapiens, UniProt Q01726) | 1.06

Consider the compound N=C(N)NCCC[C@H](NC(=O)[C@@H](Cc1ccccc1)NC(=O)[C@H](Cc1c[nH]cn1)NC(=O)CNC(=O)c1ccccc1)C(=O)N[C@@H](Cc1ccc2ccccc2c1)C(N)=O [(I-c)] (HELM PEPTIDE1{[O=C(c1ccccc1)[*:2]].G.H.[dF].R.[O=C([C@H](Cc1ccc2ccccc2c1)N[*:1])[*:2]].[am]}$$$$V2.0) and give its measured EC50.
0.11

Entry source: patent US11591367B2
